Experiment: refractive index (Na D-line) (dimensionless)
Conditions: 313.15 K; 101.33 kPa; Liquid; Standard Abbe refractometry

>  <molecule>
CC(O)C(=O)O.OCCNCCO [diethanolamine lactate]

>  <refractive index>
1.43983

$$$$
>  <molecule>
CC(O)C(=O)[O-].[NH3+]CCO (stereo not given) [2-hydroxyethylammonium lactate]

>  <refractive index>
1.43455

$$$$
>  <molecule>
CC(=O)[O-].C[NH+](CCO)CCO [N-methyldiethanolammonium acetate]

>  <refractive index>
1.42922

$$$$
>  <molecule>
CC(=O)[O-].[NH3+]CCO [2-hydroxyethylammonium acetate]

>  <refractive index>
1.43428

$$$$
>  <molecule>
CC(=O)[O-].OCC[NH2+]CCO [2,2'-azanediylbis(ethanol) acetate]

>  <refractive index>
1.43029

$$$$

----------
Conditions: 303.2 K; 101.33 kPa; Liquid; Cone and plate viscometry
Measured viscosity by item

>  <compound>
CC(=O)[O-].[NH3+]CCO [2-hydroxyethylammonium acetate]

>  <viscosity (mPa·s)>
224.68

$$$$
>  <compound>
CC(O)C(=O)[O-].[NH3+]CCO (stereo not given) [2-hydroxyethylammonium lactate]

>  <viscosity (mPa·s)>
181.45

$$$$
>  <compound>
CC(=O)[O-].OCC[NH2+]CCO [2,2'-azanediylbis(ethanol) acetate]

>  <viscosity (mPa·s)>
376.59

$$$$
>  <compound>
CC(=O)[O-].C[NH+](CCO)CCO [N-methyldiethanolammonium acetate]

>  <viscosity (mPa·s)>
144.69

$$$$
>  <compound>
CC(O)C(=O)O.OCCNCCO [diethanolamine lactate]

>  <viscosity (mPa·s)>
204.15

$$$$

----------
Conditions: 333.15 K; 101.33 kPa; Liquid; Vibrating tube method
experimental readout: mass density (kg/m3)

>  <compound>
CC(O)C(=O)O.OCCNCCO [diethanolamine lactate]

>  <numeric readout>
1179.73

$$$$
>  <compound>
CC(=O)[O-].C[NH+](CCO)CCO [N-methyldiethanolammonium acetate]

>  <numeric readout>
1111.46

$$$$
>  <compound>
CC(=O)[O-].OCC[NH2+]CCO [2,2'-azanediylbis(ethanol) acetate]

>  <numeric readout>
1147.64

$$$$
>  <compound>
CC(O)C(=O)[O-].[NH3+]CCO (stereo not given) [2-hydroxyethylammonium lactate]

>  <numeric readout>
1179.64

$$$$
>  <compound>
CC(=O)[O-].[NH3+]CCO [2-hydroxyethylammonium acetate]

>  <numeric readout>
1126.94

$$$$

----------
Settings: 333.2 K; 101.33 kPa; Liquid; Cone and plate viscometry
Measured viscosity by item

>  <compound>
CC(=O)[O-].C[NH+](CCO)CCO [N-methyldiethanolammonium acetate]

>  <viscosity, mPa·s>
32.15

$$$$
>  <compound>
CC(=O)[O-].OCC[NH2+]CCO [2,2'-azanediylbis(ethanol) acetate]

>  <viscosity, mPa·s>
60.25

$$$$
>  <compound>
CC(O)C(=O)O.OCCNCCO [diethanolamine lactate]

>  <viscosity, mPa·s>
42.15

$$$$
>  <compound>
CC(=O)[O-].[NH3+]CCO [2-hydroxyethylammonium acetate]

>  <viscosity, mPa·s>
43.91

$$$$
>  <compound>
CC(O)C(=O)[O-].[NH3+]CCO (stereo not given) [2-hydroxyethylammonium lactate]

>  <viscosity, mPa·s>
38.12

$$$$

Reference for the values: the NIST ThermoML archive (doi:10.1016/j.jct.2008.11.003)
